Values from patent US5028609A

test system: aconitine arrhythmia on rats; assay: preventive aconitine arrhythmia test on rats; type: in vivo, rats of Wistar strain; settings: 4.0 mg/kg i.v.; ± S.E.; 30 min monitoring
Exercise: state measured arrhythmia appearance time for each of the compounds provided.
Express it in min; write the number only.

What measured arrhythmia appearance time goes with CC1(C)C=C(C(=O)NCCCNCc2ccccc2)C(C)(C)N1 [I/38] ?
27.5

Note, next up: CC1(C)C=C(C(=O)NCC(O)CN2C(=O)c3ccccc3C2=O)C(C)(C)N1 (centres unmarked) [I/61]
30

Note, next up: CC1(C)CC(C(=O)NCCCNCc2ccsc2)C(C)(C)N1 (centres unmarked) [I/54]
5.2

Note, next up: CC1(C)C=C(C(=O)NCCCNC(=O)CSc2ccccc2)C(C)(C)N1 [I/12]
28.5

Note, next up: CCc1nc2ccccc2c(=O)n1CCCNC(=O)C1CC(C)(C)NC1(C)C (centres unmarked) [I/74]
30

Note, next up: CC1(C)C=C(C(=O)NCCCNCc2ccsc2)C(C)(C)N1 [I/53]
30

Note, next up: CC1(C)CC(C(=O)NCCCNCc2ccc(C(F)(F)F)cc2)C(C)(C)N1 (centres unmarked) [I/52]
7.3

Note, next up: Cc1nc2ccccc2c(=O)n1CCCNC(=O)C1=CC(C)(C)NC1(C)C [I/70]
30

Note, next up: CC1(C)C=C(C(=O)NCCNCc2cccs2)C(C)(C)N1 [I/36]
15.9

Note, next up: CCc1nc2ccccc2c(=O)n1CCCNC(=O)C1=CC(C)(C)NC1(C)C [I/72]
30

Note, next up: CCc1nc2ccccc2c(=O)n1CCNC(=O)C1=CC(C)(C)NC1(C)C [I/71]
30

Note, next up: CC1(C)CC(C(=O)NCCCN2C(=O)c3ccccc3C2=O)C(C)(C)N1 (centres unmarked) [I/62]
30

----------
Exercise: state measured LD50 for each of the compounds provided.
assay: acute intravenous toxicity, method of Litchfield and Wilcoxon; type: in vivo; conditions: mouse, in vivo, iv, mice
Express it in mg/kg; write the number only.

What measured LD50 goes with CC1(C)C=C(C(=O)NCCNCc2cccs2)C(C)(C)N1 ?
49

Note, next up: CC=Cc1ccc(OC(C)C(=O)NCCCNC(=O)C2=CC(C)(C)NC2(C)C)c(OC)c1 (stereo not drawn)
14

Note, next up: CCN(CC)CCNC(=O)c1ccc(N)cc1 [procainamide, reference compound]
141

Note, next up: CC=Cc1ccc(OCC(=O)NCCCNC(=O)C2=CC(C)(C)NC2(C)C)c(OC)c1
30

Note, next up: CC=Cc1ccc(OCC(=O)NCCNC(=O)C2=CC(C)(C)NC2(C)C)c(OC)c1
18

Note, next up: C=C[C@H]1C[N@@]2CC[C@H]1C[C@@H]2[C@@H](O)c1ccnc2ccc(OC)cc12 [quinidine, reference compound]
95

----------
Test system: white mice
Experiment: acute intravenous toxicity, method of Litchfield and Wilcoxon
Format: in vivo
Settings: i.v.
Procedure: The acute intravenous (i.v.) toxicity values of the testcompounds was determined by the method of Litchfield and Wilcoxon and as test-animals white mice of both sexes were used (J. of Pharmacol. 1949, 96, 99.).
Labels assigned by LD50 range: low range (below 20 mg/kg), mid range (20 mg/kg to below 40 mg/kg), high range (40 mg/kg or more)

Which bin, given its LD50, does CC1(C)C=C(C(=O)NCCCNCc2ccsc2)C(C)(C)N1 occupy?
mid range

Note, next up: CC1(C)C=C(C(=O)NCCCNC(=O)Cc2cccs2)C(C)(C)N1
high range

Note, next up: CC1(C)CC(C(=O)NCCCNCc2ccsc2)C(C)(C)N1 (stereo not drawn)
low range

Note, next up: CC1(C)C=C(C(=O)NCCN2C(=O)c3ccccc3C2=O)C(C)(C)N1
high range

Note, next up: CC1(C)C=C(C(=O)NCC(O)CN2C(=O)c3ccccc3C2=O)C(C)(C)N1 (stereo not drawn)
mid range

Note, next up: CC1(C)C=C(C(=O)NCCCNC(=O)CSc2ccccc2)C(C)(C)N1
mid range

Note, next up: CCc1nc2ccccc2c(=O)n1CCCNC(=O)C1=CC(C)(C)NC1(C)C
low range

Note, next up: Cc1nc2ccccc2c(=O)n1CCCNC(=O)C1=CC(C)(C)NC1(C)C
mid range

Note, next up: C=CCc1ccc(OCC(=O)NCCCNC(=O)C2=CC(C)(C)NC2(C)C)c(OC)c1
low range

Note, next up: COc1cc(C(=O)NCCCNC(=O)C2=CC(C)(C)NC2(C)C)cc(OC)c1OC
high range

Note, next up: CC1(C)C=C(C(=O)NCCCN2C(=O)c3ccccc3C2=O)C(C)(C)N1
mid range

Note, next up: CC1(C)CC(C(=O)NCCCNCc2cccs2)C(C)(C)N1 (stereo not drawn)
high range

Note, next up: CCc1nc2ccccc2c(=O)n1CCNC(=O)C1=CC(C)(C)NC1(C)C
high range

Note, next up: CC1(C)C=C(C(=O)NCCCN2C(=O)C3CC=CCC3C2=O)C(C)(C)N1 (stereo not drawn)
high range

Note, next up: CC1(C)CC(C(=O)NCCCN2C(=O)c3ccccc3C2=O)C(C)(C)N1 (stereo not drawn)
mid range

Note, next up: CCc1nc2ccccc2c(=O)n1CCCNC(=O)C1CC(C)(C)NC1(C)C (stereo not drawn)
mid range

Note, next up: CC1(C)C=C(C(=O)NCCCNCc2ccccc2)C(C)(C)N1
mid range

Note, next up: CC1(C)C=C(C(=O)NCCCNC(=O)c2ccccc2C(=O)O)C(C)(C)N1
high range

Note, next up: CC1(C)C=C(C(=O)NCCCCNCc2cccs2)C(C)(C)N1
mid range

Note, next up: C=CCc1cc(C)ccc1OCC(=O)NCCCNC(=O)C1=CC(C)(C)NC1(C)C
low range
